Data origin, for the record: ChEMBL document CHEMBL1156263

molecular target: Dihydrofolate reductase (Homo sapiens, UniProt P00374)
Sequence (P00374 whole entry): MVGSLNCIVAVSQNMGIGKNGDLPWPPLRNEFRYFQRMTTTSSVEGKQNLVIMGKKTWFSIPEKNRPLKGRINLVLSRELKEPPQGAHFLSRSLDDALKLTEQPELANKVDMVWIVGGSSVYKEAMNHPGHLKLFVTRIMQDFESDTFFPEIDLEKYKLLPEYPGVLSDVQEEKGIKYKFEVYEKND
pIC50: −log10 of the molar value.
measuredMetric: pIC50

Query: Consider the molecule shown here: Nc1nc(N)c2c(n1)[nH]c1cccc(Sc3ccccc3)c12 What is its recorded pIC50?
Response: < 4.48

* * *

molecular target: Vascular endothelial growth factor receptor 1 (Homo sapiens, UniProt P17948); assay: Inhibition of VEGFR1 in human A498 cells by phosphotyrosine cell-based ELISA
Sequence (P17948 whole entry): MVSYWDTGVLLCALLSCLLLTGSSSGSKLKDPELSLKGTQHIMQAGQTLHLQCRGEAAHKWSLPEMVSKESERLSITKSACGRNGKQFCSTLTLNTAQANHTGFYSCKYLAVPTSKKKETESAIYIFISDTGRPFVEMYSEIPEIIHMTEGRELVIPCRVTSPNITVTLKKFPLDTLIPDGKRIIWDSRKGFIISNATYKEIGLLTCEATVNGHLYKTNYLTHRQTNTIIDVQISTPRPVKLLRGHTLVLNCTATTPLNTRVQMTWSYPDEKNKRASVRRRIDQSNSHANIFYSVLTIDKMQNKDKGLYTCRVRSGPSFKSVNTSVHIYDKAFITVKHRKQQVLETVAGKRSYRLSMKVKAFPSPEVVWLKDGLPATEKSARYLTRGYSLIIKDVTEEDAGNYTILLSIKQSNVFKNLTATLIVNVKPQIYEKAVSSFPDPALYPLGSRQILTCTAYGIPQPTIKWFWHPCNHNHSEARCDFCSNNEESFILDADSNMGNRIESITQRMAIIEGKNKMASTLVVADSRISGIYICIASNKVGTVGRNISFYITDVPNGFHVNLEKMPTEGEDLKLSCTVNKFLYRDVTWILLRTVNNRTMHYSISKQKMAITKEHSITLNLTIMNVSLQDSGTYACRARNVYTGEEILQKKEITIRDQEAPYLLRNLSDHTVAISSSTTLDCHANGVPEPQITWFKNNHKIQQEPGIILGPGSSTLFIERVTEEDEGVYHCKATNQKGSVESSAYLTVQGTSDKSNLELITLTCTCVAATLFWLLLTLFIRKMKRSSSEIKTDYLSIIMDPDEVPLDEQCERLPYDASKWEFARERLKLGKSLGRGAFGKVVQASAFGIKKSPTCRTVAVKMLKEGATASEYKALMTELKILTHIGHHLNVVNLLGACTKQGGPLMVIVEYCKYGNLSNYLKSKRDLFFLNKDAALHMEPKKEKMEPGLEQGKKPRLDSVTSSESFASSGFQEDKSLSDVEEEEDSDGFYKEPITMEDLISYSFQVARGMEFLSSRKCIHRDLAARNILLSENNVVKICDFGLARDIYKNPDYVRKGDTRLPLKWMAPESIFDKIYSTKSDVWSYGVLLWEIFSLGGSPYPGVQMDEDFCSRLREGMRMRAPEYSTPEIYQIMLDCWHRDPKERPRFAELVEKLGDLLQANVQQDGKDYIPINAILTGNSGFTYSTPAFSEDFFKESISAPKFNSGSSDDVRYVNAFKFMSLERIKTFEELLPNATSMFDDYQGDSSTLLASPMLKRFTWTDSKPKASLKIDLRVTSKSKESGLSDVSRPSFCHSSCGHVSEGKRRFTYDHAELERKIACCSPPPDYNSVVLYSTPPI
Would you mind telling me the reported pIC50 of each entry?
Scale for pIC50: -log10 of concentration given in mol/L; no unit attached.

Query: Consider the compound shown here: Nc1nc(N)c2c(n1)[nH]c1cccc(Sc3ccccc3)c12 What is its recorded pIC50?
Response: 3.93

Query: Consider the compound shown here: Cc1ccc(Sc2cccc3[nH]c4nc(N)nc(N)c4c23)cc1 What is its recorded pIC50?
Response: 3.80
